Molecular target: T1, Atg3^∆FR (yeast Atg3 lacking the flexible region) (S. cerevisiae, UniProt P40344 1-310, ∆FR (FR, residues 85–159))
T1 sequence: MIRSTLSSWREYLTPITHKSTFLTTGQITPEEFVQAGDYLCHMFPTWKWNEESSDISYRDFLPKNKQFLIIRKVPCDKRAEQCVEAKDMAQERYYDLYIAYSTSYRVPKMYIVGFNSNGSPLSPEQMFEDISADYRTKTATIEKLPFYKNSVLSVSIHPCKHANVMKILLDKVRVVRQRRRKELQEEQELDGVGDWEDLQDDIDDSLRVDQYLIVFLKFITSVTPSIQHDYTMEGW
Assay: NMR; average over E123IR residues
reportedMetric: pKd
Conceptually, pKd converts a concentration in mol/L into minus its log10.

Entry Atg3^FR (residues 86–159), the intrinsically disordered flexible region of yeast Atg3 (domain or fragment, S. cerevisiae, UniProt P40344 86-159, looked up, Atg3 (autophagy E2), S. cerevisiae, flexible region, residues 86–159; 15N-labelled (or 13C,15N-labelled) for NMR; The introduction gives the FR as residues 85–159, the construct is 86–159; also called Atg3^FR 86–159; holds the Atg3^E123IR element; source: purified) VEGPDVIMKGFAEDGDEDDVLEYIGSETEHVQSTPAGGTKDSSIDDIDELIQDMEIKEEDENDDTEEFNAKGGL , pKd reported as 3.62
